Biological target: cardiac potassium (hERG) channels (Homo sapiens, UniProt Q12809)
Sequence (Q12809 whole entry): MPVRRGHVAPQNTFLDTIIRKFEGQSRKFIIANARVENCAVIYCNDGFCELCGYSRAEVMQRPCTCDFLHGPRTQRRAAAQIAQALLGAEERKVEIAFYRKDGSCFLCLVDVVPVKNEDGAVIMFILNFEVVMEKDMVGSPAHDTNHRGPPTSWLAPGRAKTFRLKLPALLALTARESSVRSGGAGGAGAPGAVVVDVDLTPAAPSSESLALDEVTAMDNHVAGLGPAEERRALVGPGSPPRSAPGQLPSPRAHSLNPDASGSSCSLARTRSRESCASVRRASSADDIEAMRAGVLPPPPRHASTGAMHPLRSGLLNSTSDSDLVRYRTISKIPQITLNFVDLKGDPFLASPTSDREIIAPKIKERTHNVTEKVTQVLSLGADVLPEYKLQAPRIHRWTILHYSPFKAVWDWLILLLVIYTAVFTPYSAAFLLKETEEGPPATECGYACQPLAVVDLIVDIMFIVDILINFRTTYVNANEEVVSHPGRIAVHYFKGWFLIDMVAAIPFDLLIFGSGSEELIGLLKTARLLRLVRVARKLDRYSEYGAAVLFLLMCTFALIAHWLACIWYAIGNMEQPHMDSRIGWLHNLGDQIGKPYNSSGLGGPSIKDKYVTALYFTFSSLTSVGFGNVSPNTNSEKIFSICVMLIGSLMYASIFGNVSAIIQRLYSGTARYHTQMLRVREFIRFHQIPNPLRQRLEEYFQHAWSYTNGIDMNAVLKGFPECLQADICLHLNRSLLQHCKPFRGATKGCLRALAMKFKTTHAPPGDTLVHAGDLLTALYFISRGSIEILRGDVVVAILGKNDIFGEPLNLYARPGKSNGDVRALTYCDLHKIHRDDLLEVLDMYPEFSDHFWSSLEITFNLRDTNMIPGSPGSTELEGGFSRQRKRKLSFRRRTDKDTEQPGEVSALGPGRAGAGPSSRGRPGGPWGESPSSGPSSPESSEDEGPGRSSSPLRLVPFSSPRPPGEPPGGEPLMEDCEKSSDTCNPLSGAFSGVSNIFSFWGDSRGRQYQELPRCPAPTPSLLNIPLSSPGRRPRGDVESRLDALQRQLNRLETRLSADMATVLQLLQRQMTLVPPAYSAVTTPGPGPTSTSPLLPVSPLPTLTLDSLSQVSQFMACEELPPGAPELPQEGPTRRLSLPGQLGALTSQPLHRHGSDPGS
Assay: hERG channel inhibition, Patchliner automated patch clamp
Assay type: cell-based
Conditions: 6-point curve, maximum 100 μM
Procedure: (S)-1-((2-(trifluoromethyl)phenyl)sulfonyl)piperidine-3-carboxylic acid was tested for inhibition of cardiac potassium (hERG) channels using the Patchliner automated patch clamp. 6-Point concentration-response curves were generated using half-log serial dilutions from a maximum final test concentration of 100 μM. IC50 values were obtained from a 4-parameter logistic fit of the concentration-response data. […]
pIC50: −log10 of the molar value.
measurement_label: pIC50

What value of measured pIC50 is listed for "O=C(O)[C@H]1CCCN(S(=O)(=O)c2ccccc2C(F)(F)F)C1" ?
< 4.00
